Cited source: PubChem BioAssay (NCI)

Consider the following compounds and their measured growth inhibition readings.
# EXPERIMENT NOTES: NCI Yeast Anticancer Drug Screen. Data for the sgs1 mgt1 strain (AID 161);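 also: 0% = growth of cultures given vehicle only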
# MEASUREMENT CONDITIONS: S. cerevisiae sgs1 mgt1 strain, at 50.0 µM (retest, dose inferred, filed as 5.0), hits give high values
# Method: Growth inhibition of yeast strains with defined genetic alterations is measured as a screen for potential anti-cancer activity. Selected strains with alterations in DNA damage repair or cell cycle control were exposed to compounds and growth inhibition was measured relative to vehicle treated controls. The strain used in this assay is sgs1 mgt1
The panel holds about 79,000 compounds, 15% with a hit somewhere; the sample as a whole holds those more often.
ENDPOINT: growth inhibition (%)

CN1C(=O)c2ccc3ccccc3c2C1=O
54
O=C1C=C(c2ccccc2)OC1(c1ccccc1)N1CCOCC1 (stereo unspecified)
90
CC(=O)Nc1ccc2c(c1)Cc1cc(N=C3C=CC(=O)O3)ccc1-2
99
COc1oc(C(=O)NC2CCCCC2)c(-c2ccc(Cl)cc2)c1S(=O)(=O)c1ccccc1
88
CCCCOC(=O)Nc1ccc(C)c(NC(=O)OCCCC)c1
82
O=C1/C(=C/c2ccccc2)CCCC1CN1CCCCC1 (stereo unspecified)
80
N#CNC(N)=Nc1cc2ccccc2c2ccccc12
96
O=C(O)Cc1cc(F)ccc1C(=O)O
65
COC(=O)C1=C(C(=O)OC)C(C(=O)OC)C(C(=O)OC)C(C(=O)OC)(C(=O)OC)C(C(=O)OC)=C1C(=O)OC (stereo unspecified)
99
O=C(C[n+]1ccc2ccccc2c1)c1ccc2ccccc2c1
77
CC(C)(C)C1=CC(=CC=C2C=CN(CCCCCCCCCCCO)C=C2)C=C(C(C)(C)C)C1=O
89

###

# EXPERIMENT NOTES: NCI Yeast Anticancer Drug Screen. Data for the rad18 strain (AID 177)
# MEASUREMENT CONDITIONS: S. cerevisiae rad18 mutant growth inhibition; at 100.0 µM; hits give high values
This is part of a sample that, as a whole, favours compounds with a hit. Of some 79,000 tested, about 15% had one in any assay.
Response key: rule met means growth inhibition >= 90%; rule not met means growth inhibition < 90%.

CCCCCCCCCCCCCCCCOP(=O)(O)OCC(N)C(=O)O (stereo not given)
rule met
COc1ccc(N=CN(C)C)c(C)c1
rule met
O=C(CSC(=S)N1CCCCC1)Nc1nc2c(s1)CCCC2
rule not met
COc1cccc2c1C(=O)c1c(O)c3c(c(O)c1C2=O)CC(O)(C(O)CO)CC3OC1CC(N2CCOCC2)C(O)C(C)O1 (stereo not given)
rule met

###

# EXPERIMENT NOTES: NCI Yeast Anticancer Drug Screen. Data for the rad50 strain (AID 155);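 also: 0% = growth of vehicle-only cultures of the same strain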
# MEASUREMENT CONDITIONS: S. cerevisiae rad50 strain growth inhibition; at 11.0 µM; hits give high values
# Method: Growth inhibition of yeast strains with defined genetic alterations is measured as a screen for potential anti-cancer activity. Selected strains with alterations in DNA damage repair or cell cycle control were exposed to compounds and growth inhibition was measured relative to vehicle treated controls. The strain used in this assay is rad50
About 79,000 compounds went through this panel and 15% of them were active in at least one assay; those are over-represented in the sample as a whole.
Overview of recorded growth inhibition for various molecules
ENDPOINT: growth inhibition (%)

COc1ccc(C(=O)c2ccccc2C(=O)c2ccccc2OC)cc1
-1
COc1cccc2c1C(=O)c1c(O)c3c(c(O)c1C2=O)C[C@@](O)(C(C)=O)C[C@@H]3OC1CC(OC(C)=O)C(OC(C)=O)C(C)O1 (stereo not given in full)
39
C=C1CCC(O)C/C1=C/C=C1\CCCC2(C)C1CCC2C(C)CCCC(C)C (stereo not given)
5
O=c1ccc(=O)n(-c2ccccc2)[nH]1
28
Cc1c2cccc(Sc3ccccc3)c2c2c3c(cccc13)[S+](c1ccccc1)C2 (stereo not given)
97
COc1nc2c(c(=O)n1C)N=C(c1ccccc1)[C@H](C(CC(=O)c1ccccc1)c1ccccc1)C(c1ccccc1)N2 (stereo not given in full)
5
COC(=O)Nc1cn2ccc(C(Cl)=C(Cl)Cl)cc2n1
-35
Cn1c(=O)c2c(nc(N)n2C2OC(CO)C(O)C2O)n(C)c1=O (stereo not given)
-11
Oc1cccc2cc(Cl)cnc12
37
CC(=O)SC(C[N+](=O)[O-])c1ccccc1 (stereo not given)
96
CN(C)CCNC(=O)c1cccc2cc([N+](=O)[O-])ccc12
77
CCN(CC)CCNc1ccc([N+](=O)[O-])c2nc3ccccc3c(N)c12
15
O=[N+]([O-])c1cc(F)c(F)cc1Sc1cc(F)c(F)cc1[N+](=O)[O-]
91
Cc1ccc(Sc2ccccc2N)cc1
-12
COc1ccc(C/C=N/Nc2ccc([N+](=O)[O-])cc2)cc1OC
28
Oc1ccc(-c2nc(-c3ccc(F)cc3)c(-c3ccc4ccccc4n3)[nH]2)cc1
76
C=C(C(=C)n1nnc(C(=O)OC)c1C(=O)OC)n1nnc(C(=O)OC)c1C(=O)OC
0
O=[N+]([O-])c1cc(Cl)cnc1Br
81
O=C(C[n+]1ccc2ccccc2c1)c1ccc2ccccc2c1
-30
CC(C)c1ccc(NC(=S)NC(=O)c2ccccc2)cc1
1
O=[N+]([O-])c1cccc2nc3ccccc3c(NCCC[N+]3([O-])CCCCC3)c12
47
O=P(NC1CCCCC1)(OCc1ccccc1)OCc1ccccc1
11
OCC(CO)C(c1cccc2ccccc12)c1cccc2ccccc12
98
CCCCOP(=O)(CCCP(=O)(OCCCC)OCCCC)OCCCC
1
COC(=O)/C=C(/C(=O)OC)C(Cl)(Cl)Cl
33
CN1CCN(C(=O)/C=C/C(=O)c2ccccc2)CC1
23
O=C(Oc1ccc2c(c1)CN(Cc1ccccc1)CO2)c1ccccc1
17
Oc1ccc2c(c1)C(O)CCCC2 (stereo not given)
28
O=C1NC(SSC2=NNC3(C(=O)N2)c2ccccc2-c2ccccc23)=NNC12c1ccccc1-c1ccccc12
-13
CCC(=O)c1cc(C(=O)C(=S)SC)cc(C(=O)C(=S)SC)c1
96
CC(=O)Nc1ccc(/C=C/[N+](=O)[O-])cc1
67
CCc1cc(O)c(Cl)c(C)c1Cl
-31
Oc1[nH]c2ccccc2c1N=NC(=S)N1CCCCC1
13
CC(=O)OCC1OC2OC(=O)NC2C(OC(C)=O)C1OC(C)=O (stereo not given)
0
Cc1nc2ccc(N=NN(C)C)cc2[nH]1
15
O=C(CC(=O)n1nc(-c2ccccc2)c(N=Nc2ccc(Cl)cc2)c1-c1ccccc1)Nc1cccc(Cl)c1
0
Nc1ccc(F)cc1S
-14
CC1SC2(C(=O)Nc3ccc(Cl)cc32)N(c2ccc(Cl)cc2)C1=O (stereo not given)
10
COc1ccc2[nH]cc([C@@H]3C4CCC(C4)[C@H]3NCc3cccc(CN[C@H]4C5CCC(C5)[C@@H]4c4c[nH]c5ccc(OC)cc45)c3)c2c1
-27
COC(=O)C1=C(C(=O)OC)C(C(=O)OC)C(C(=O)OC)C(C(=O)OC)(C(=O)OC)C(C(=O)OC)=C1C(=O)OC (stereo not given)
7
CC12C(=O)OC(=O)C(c3ccccc31)c1ccccc12
-16
CCc1c(Cl)c(C)cc(O)c1Cl
-27
COc1cc([C@@H]2c3cc4c(cc3[C@H](OC3OC5COC(C(C)C)OC5C(O)C3O)C3COC(=O)[C@@H]32)OCO4)cc(OC)c1O (stereo not given in full)
-11
CNC(=O)OCc1c(COC(=O)NC)c(-c2ccc(Cl)c(Cl)c2)n2c1SCC2
-3
CCCC(O)C1CC(C(C)C)CCC1C (stereo not given)
25

###

# EXPERIMENT NOTES: NCI Yeast Anticancer Drug Screen. Data for the mlh1 rad18 strain (AID 175)
# MEASUREMENT CONDITIONS: S. cerevisiae mlh1 rad18 strain growth inhibition; at 50.0 µM; hits give high values
The panel holds about 79,000 compounds, 15% with a hit somewhere; the sample as a whole holds those more often.
Output: class label from growth inhibition. Mapping: A: < 60%; B: ≥ 60% and < 90%; C: ≥ 90%

CCN(CC)CCNc1ccc2ncn3c4cc(OC)c(OC)c(=O)c4c(O)c1c23
A
Cc1cc(C)nc(NS(=O)(=O)c2ccc(Nc3c4ccccc4nc4c(C(=O)NCCO)cccc34)cc2)n1
B
CC(C)/C(Cl)=N\OC(=O)Nc1ccc(F)cc1F
A
Cn1c(=O)c2c(nc(N)n2C2OC(CO)C(O)C2O)n(C)c1=O (stereo unspecified)
B
CN(C)CCNC(=O)c1cccc2cc([N+](=O)[O-])ccc12
A
Nc1n[n+]([O-])c2ccc(Cl)cc2[n+]1[O-]
C
COc1cc(/C=N/Nc2nnc3c4ccccc4c4ncccc4c3n2)cc(OC)c1OC
A
CCCCOC(=O)Nc1ccc(C)c(NC(=O)OCCCC)c1
C
O=[N+]([O-])c1cccc2nc3ccccc3c(NCCC[N+]3([O-])CCCCC3)c12
C
CC1(C)CC(=O)C(/C=N/c2nc(-c3ccccc3)cs2)=C(O)C1
C
Cc1cc(N(CCOS(C)(=O)=O)CCOS(C)(=O)=O)ccc1C=Nc1ccc(-c2csc(-c3ccccc3)n2)c(Cl)c1
C
COc1ccc(/C=C2\NC(=S)N(/C=C3\C(=O)Oc4ccccc4C3=O)C2=O)cc1
B
c1ccc2c(c1)sc1c3cnccc3ccc21
A
COC(=O)CC1CCc2c(ccc3ccccc23)C1(C)C(=O)OC (stereo unspecified)
A
O=C1c2cccnc2C(=O)C2C3C=CC(C3)C12 (stereo unspecified)
C
CSc1nnc(SC)nn1
B
O=C(Nc1ccc(Cl)cc1)Nc1nnc2nc(C(C(=O)c3cccc([N+](=O)[O-])c3Cl)c3nc4nnc(NC(=O)Nc5ccc(Cl)cc5)n4[nH]c3=O)c(=O)[nH]n12
C
CCC(C)OC(=O)Nc1ccc(C)c(NC(=O)OC(C)CC)c1 (stereo unspecified)
B
C(=Nc1ccc(-c2cc(-c3ccccc3)nc3ccc4ccccc4c23)cc1)c1ccccc1
A
CCCCN(CCCC)C(=O)/C=C/c1ccccc1
B
